test: Cytotoxicity / MDR reversal assay, MDR19-HEK293; format: cell-based, human; conditions: human, MDR19-HEK293 cells (ABCB1-transfected HEK293)
assay-endpoint: IC50 (nM)
Give the number; nM is assumed, so skip it.

In: Please report IC50 for the following molecule: COc1cccc2c1C(=O)c1c(O)c3c(c(O)c1C2=O)C[C@@](O)(C(=O)CO)C[C@@H]3O[C@H]1C[C@H](N)[C@H](O)[C@H](C)O1
Out: 594
